Origin of measurements: patent US5426106A

- target desc: strychnine-insensitive site present on the NMDA receptor (Rattus norvegicus)
- Construct: NMDA receptor of rat forebrain membranes
- method summary: Displacement of 3H-L-689,560 binding to the strychnine-insensitive site of rat forebrain membranes
- applied conditions: 3H-L-689,560, rat forebrain membranes; read-out: concentration required to displace 50% of the specific binding (IC50)
pIC50: −log10 of the molar value.
metric: pIC50

Returns the measured pIC50 for the input compound. Input: "O=c1[nH]n2cccc2c(O)c1-c1ccccc1" > 4.30
